Data origin, for the record: patent US20170369492A1

Target: human GPR43 (Homo sapiens)
Construct: expressed in transfected cells
Assay: Ca-Flux Functional Assay: Determination of Agonist/Positive Allosteric Modulator (PAM) Activity
Format: cell-based
Conditions: CHO-K1 Gα16 cells stably expressing human GPR43; compound added in the presence of EC20 sodium acetate; intracellular Ca2+ by FLIPR; agonist/PAM activity not distinguished
OUTCOME_MEASURE: EC50 (nM)

COC1CCN(S(=O)(=O)c2c(N)n(C3CCCCC3)c3nccnc23)C1 (stereo not drawn) [Example 91] ... 8350

(A) CC1(C)CCCN(S(=O)(=O)c2c(N)n(C3CCCCC3)c3nccnc23)C1 [Example 92]
(B) Nc1c(S(=O)(=O)c2ccccc2)c2cc(Cl)nnc2n1C1CCCCC1 [Example 27]
### Prompt Form: Entry with minimum EC50 (choose one): A / B The response must carry the label of the picked entry.
### Response B

---

Target: human GPR43 (Homo sapiens, UniProt O15552)
Sequence (O15552 1-330): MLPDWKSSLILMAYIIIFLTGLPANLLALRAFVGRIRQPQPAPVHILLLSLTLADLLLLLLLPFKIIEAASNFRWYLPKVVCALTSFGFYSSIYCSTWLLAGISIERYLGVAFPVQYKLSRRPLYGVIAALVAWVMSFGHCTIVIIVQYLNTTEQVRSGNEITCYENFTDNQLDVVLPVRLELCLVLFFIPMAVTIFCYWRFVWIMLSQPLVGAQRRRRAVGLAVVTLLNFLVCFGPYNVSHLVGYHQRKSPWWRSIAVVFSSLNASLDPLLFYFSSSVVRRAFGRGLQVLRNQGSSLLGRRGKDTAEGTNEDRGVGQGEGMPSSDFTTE
Assay: Ca-Flux Functional Assay: Determination of Agonist/Positive Allosteric Modulator (PAM) Activity
Conditions: CHO-K1 Gα16 cells stably expressing human GPR43; compound added in the presence of EC20 sodium acetate; intracellular Ca2+ by FLIPR; agonist/PAM activity not distinguished
pEC50: −log10 of the molar value.
OUTCOME_MEASURE: pEC50

Below, 4 compounds whose answers are already recorded.
COc1ccc(S(=O)(=O)c2c(N)n(C3CCCCC3)c3nccnc23)cc1 ... 7.11
Nc1c(S(=O)(=O)c2ccc(Cl)cc2)c2nccnc2n1C1CCCCC1 ... 6.71
Nc1c(S(=O)(=O)c2ccccc2)c2nccnc2n1C1CCCCC1O (stereo not drawn) ... 5.19
Nc1c(S(=O)(=O)c2ccccc2)c2cncnc2n1C1CCCCC1 ... 6.47

(A) Nc1c(S(=O)(=O)NCC2COC2)c2nccnc2n1C1CCCCC1
(B) Nc1c(S(=O)(=O)NCCc2nccs2)c2nccnc2n1C1CCCCC1
(C) Nc1c(S(=O)(=O)c2ccccc2)c2ncccc2n1C1CCC(F)(F)CC1
(D) COc1ncnc2c(S(=O)(=O)c3ccccc3)c(N)n(C3CCCCC3)c12
(E) COCC1CCN(S(=O)(=O)c2c(N)n(C3CCCCC3)c3nccnc23)C1 (stereo not drawn)
### Prompt Rank the 5 compounds: largest pEC50 first, smallest last. // list labels; follow requested order
### Response D, C, B, E, A
(D: 7.10, C: 6.55, B: 6.33, E: 5.50, A: 5.22)

---

Molecular target: human GPR43 (Homo sapiens, UniProt O15552)
Experiment: Ca-Flux Functional Assay: Determination of Agonist/Positive Allosteric Modulator (PAM) Activity
Details: CHO-K1 Gα16 cells stably expressing human GPR43; compound added in the presence of EC20 sodium acetate; intracellular Ca2+ by FLIPR; agonist/PAM activity not distinguished
OUTCOME_MEASURE: EC50 (nM)

(a) COc1nc(C)nc2c(S(=O)(=O)c3cccc(F)c3)c(N)n(C3CCCCC3)c12 [Example 39]
(b) Nc1c(S(=O)(=O)N2CCCCCC2)c2nccnc2n1C1CCCCC1 [Example 77]
### Prompt Form: Entry with minimum EC50 (choose one): a / b The response must carry the label of the picked entry.
### Response b

(1) Nc1c(S(=O)(=O)c2ccccc2)c2cnccc2n1C1CCCCC1 [Example 23]
(2) Nc1c(S(=O)(=O)N2CCOCC2)c2nccnc2n1C1CCCCC1 [Example 61]
### Prompt Form: Entry with minimum EC50 (choose one): 1 / 2 The response must carry the label of the picked entry.
### Response 1

(a) Cc1ccc(S(=O)(=O)c2c(N)n(C3CCCC3)c3nccnc23)cc1 [Example 4]
(b) Nc1c(S(=O)(=O)N2CCC(F)(F)CC2)c2nccnc2n1C1CCCCC1 [Example 69]
(c) CCCCn1c(N)c(S(=O)(=O)c2ccccc2)c2nccnc21 [Example 45]
(d) Nc1c(S(=O)(=O)c2ccc3c(c2)OCCO3)c2nccnc2n1C1CCCCC1 [Example 117]
(e) Nc1c(S(=O)(=O)N2CC(n3cccn3)C2)c2nccnc2n1C1CCCCC1 [Example 101]
### Prompt # ascending order, key=EC50 // list labels; follow requested order
### Response d, b, a, c, e

(I) COC1CCN(S(=O)(=O)c2c(N)n(C3CCCCC3)c3nccnc23)CC1 [Example 73]
(II) COC1CN(S(=O)(=O)c2c(N)n(C3CCCCC3)c3nccnc23)C1 [Example 64]
### Prompt Form: Entry with minimum EC50 (choose one): I / II The response must carry the label of the picked entry.
### Response I
(I: 488 nM, II: 7130 nM)

(1) CCC(C)NS(=O)(=O)c1c(N)n(C2CCCCC2)c2nccnc12 (stereo not drawn) [Example 95]
(2) CNc1ncnc2c(S(=O)(=O)c3ccccc3)c(N)n(C3CCC(F)(F)CC3)c12 [Example 33]
### Prompt Form: Entry with minimum EC50 (choose one): 1 / 2 The response must carry the label of the picked entry.
### Response 1

(1) CC1CCCN(S(=O)(=O)c2c(N)n(C3CCCCC3)c3nccnc23)C1 (stereo not drawn) [Example 102]
(2) Nc1c(S(=O)(=O)c2ccccc2)c2nccnc2n1C1CCC1 [Example 43]
### Prompt Form: Entry with minimum EC50 (choose one): 1 / 2 The response must carry the label of the picked entry.
### Response 1
(1: 258 nM, 2: 6990 nM)

(1) Nc1c(S(=O)(=O)c2ccccc2)c2nccnc2n1[C@@H]1C[C@H]2CC[C@@H]1C2 (relative stereo) [Example 53]
(2) Cc1ccc(S(=O)(=O)c2c(N)n(C3CCCCC3)c3nccnc23)cc1 [Example 3]
### Prompt Form: Entry with minimum EC50 (choose one): 1 / 2 The response must carry the label of the picked entry.
### Response 2
(2: 122 nM, 1: 275 nM)
